All figures here come from patent EP0908457B1.

- Test system: Monochoria vaginalis, Presl.
- Test Summary: Preemergence weed control under flooded paddy conditions, MOOVA (Monochoria)
- Assay type: in vivo
- Test Context: 0.1250 kg/ha; preemergence weeds, flooded paddy; herbicidal effect rating 0-9, three to four weeks after treatment
Property Label: MOOVA
Simply state the number, no unit and no words.

Which measured MOOVA value corresponds to CCC(C#N)(CC)c1nsc2ccc(-n3c(=O)cc(C(F)(F)F)n(C)c3=O)cc12 ?
9.0

Reported MOOVA for COc1ccc(C)cc1-c1nsc2cc(Cl)c(-n3c(=O)cc(C(F)(F)F)n(C)c3=O)cc12 : what is it?
9.0

What MOOVA value was documented for this molecule, Cn1c(C(F)(F)F)cc(=O)n(-c2ccc3snc(C(=O)NS(=O)(=O)Cc4ccc(OC(F)(F)F)cc4)c3c2)c1=O ?
9.0

What value of MOOVA has been recorded for this entry: Cn1c(C(F)(F)F)cc(=O)n(-c2ccc3snc(/C=N/Nc4ccccc4)c3c2)c1=O
9.0

# lookup: MOOVA of Cn1c(C(F)(F)F)cc(=O)n(-c2ccc3snc(C(=O)c4ccccc4)c3c2)c1=O
9.0

Look up MOOVA: Cn1c(C(F)(F)F)cc(=O)n(-c2ccc3snc(C(SCCCO)SCCCO)c3c2)c1=O
9.0

For the molecule Cn1c(C(F)(F)F)cc(=O)n(-c2ccc3snc(C(=O)NS(=O)(=O)Cc4ccccc4[N+](=O)[O-])c3c2)c1=O , what MOOVA is on record?
5.0

Give its MOOVA value. Item: CN(C)/N=C/c1nsc2ccc(-n3c(=O)cc(C(F)(F)F)n(C)c3=O)cc12
9.0

Please look up its MOOVA: Cn1c(C(F)(F)F)cc(=O)n(-c2ccc3snc(C(=O)OCCCO)c3c2)c1=O
9.0

Can you share its MOOVA? I mean this molecule: C#CCOC(=O)COc1cc2c(cc1-c1nsc3ccc(-n4c(=O)cc(C(F)(F)F)n(C)c4=O)cc13)CCC2
9.0

Requested read-out: MOOVA. Entry: Cn1c(C(F)(F)F)cc(=O)n(-c2ccc3snc(C(SCCO)SCCO)c3c2)c1=O
4.0

* * *

Kindly supply the reported herbicidal effect rating, MOOVA values for the records listed here.
- System: Monochoria vaginalis, Presl.
- Test Summary: Preemergence weed control under flooded paddy conditions, MOOVA (Monochoria); on herbicidal effect rating, MOOVA: meaning of each grade not given here
- Format: in vivo
- Test Context: 0.1250 kg/ha; preemergence, flooded paddy; rated three to four weeks after treatment
Give the figure only, with no unit attached.

What herbicidal effect rating, MOOVA value was documented for this compound, COC(=O)COc1ccc(C)cc1-c1nsc2ccc(-n3c(=O)cc(C)n(C)c3=O)cc12 ?
0.0

Entry under review: COCc1nsc2ccc(-n3c(=O)cc(C(F)(F)F)n(C)c3=O)cc12 . Reported herbicidal effect rating, MOOVA?
9.0

Which herbicidal effect rating, MOOVA is listed for Cc1ccc(OCC(=O)OC(C)(C)C)c(-c2nsc3ccc(-n4c(=O)cc(C(F)(F)F)n(C)c4=O)cc23)c1 ?
9.0

Please give the measured herbicidal effect rating, MOOVA for this compound: COC(=O)C(C)Oc1c(C)cc(C)cc1-c1nsc2ccc(-n3c(=O)cc(C(F)(F)F)n(C)c3=O)cc12 (stereo not shown)
9.0

* * *

Answer each item with its documented SAGPY herbicidal effect rating.
- Tested on: Sagittaria pygmaea, L.
- Test Summary: Preemergence weed control under flooded paddy conditions, SAGPY (Arrowhead (Pygmaea))
- Type: in vivo
- Test Context: Rate 0.2500 kg/ha; preemergence, flooded paddy; rated three to four weeks after treatment
I'd appreciate a reply containing only the number, no unit.

Please report the recorded SAGPY herbicidal effect rating for C#CCOC(=O)COc1c(-c2nsc3ccc(-n4c(=O)cc(C(F)(F)F)n(C)c4=O)cc23)ccc(C)c1C .
9.0

Give the measured SAGPY herbicidal effect rating of Cc1ccc(OCC(=O)NS(=O)(=O)c2sc(C)nc2C)c(-c2nsc3ccc(-n4c(=O)cc(C(F)(F)F)n(C)c4=O)cc23)c1 .
0.0

Consider the compound shown here: COP(=O)(Cc1nsc2ccc(-n3c(=O)cc(C(F)(F)F)n(C)c3=O)cc12)OC What is its recorded SAGPY herbicidal effect rating?
0.0

Quick check: SAGPY herbicidal effect rating of COC(=O)COCc1nsc2ccc(-n3c(=O)cc(C(F)(F)F)n(C)c3=O)cc12 ?
5.0

Give the measured SAGPY herbicidal effect rating of Cn1c(C(F)(F)F)cc(=O)n(-c2ccc3snc(CO)c3c2)c1=O .
0.0

Data request, read-out SAGPY herbicidal effect rating, for CNC.Cn1c(C(F)(F)F)cc(=O)n(-c2ccc3snc(COCC(=O)NS(C)(=O)=O)c3c2)c1=O
6.0

Please report the recorded SAGPY herbicidal effect rating for Cn1c(C(F)(F)F)cc(=O)n(-c2ccc3snc(-c4ccc(OCC(=O)O)cc4)c3c2)c1=O .
8.0

* * *

- Test system: Sagittaria pygmaea, L.
- Test Summary: Postemergence weed control under flooded paddy conditions, SAGPY (Arrowhead (Pygmaea))
- Type: in vivo
- Test Context: Rate 0.0625 kg/ha, rated three to four weeks after treatment
Property Label: herbicidal effect rating, SAGPY
Just the number.

herbicidal effect rating, SAGPY for Cn1c(C(F)(F)F)cc(=O)n(-c2ccc3snc(-c4ccccc4)c3c2)c1=O [Example 4] ?
2.0

Would you kindly share the measured herbicidal effect rating, SAGPY for COC(=O)C(C)Oc1ccc(C)cc1-c1nsc2ccc(-n3c(=O)cc(C(F)(F)F)n(C)c3=O)cc12 (stereo not shown) [Example 3] ?
0.0

What herbicidal effect rating, SAGPY value was documented for this molecule, Cc1nsc2ccc(-n3c(=O)cc(C(F)(F)F)n(C)c3=O)cc12 [Example 6] ?
4.0

Look up herbicidal effect rating, SAGPY for this molecule: COC(=O)COc1ccc(C)cc1-c1nsc2ccc(-n3c(=O)cc(C(F)(F)F)n(C)c3=O)cc12 [Example 2]
0.0

* * *

- Tested on: Sagittaria pygmaea, L.
- Test Summary: Preemergence weed control under flooded paddy conditions, SAGPY (Arrowhead (Pygmaea)); on herbicidal effect rating, SAGPY: meaning of each grade not given here
- Format: in vivo
- Test Context: 0.1250 kg/ha; preemergence, flooded paddy; rated three to four weeks after treatment
Outcome: y for herbicidal effect rating, SAGPY of at least 2; n for anything lower.

Is herbicidal effect rating, SAGPY at least 2? Consider COC(=O)C(C)Oc1cc(C)c(C)cc1-c1nsc2ccc(-n3c(=O)cc(C(F)(F)F)n(C)c3=O)cc12 (stereo not shown)
y

Threshold query (herbicidal effect rating, SAGPY >= 2) on Cc1ccc(OCC(=O)OCCN(C)C)c(-c2nsc3ccc(-n4c(=O)cc(C(F)(F)F)n(C)c4=O)cc23)c1
n

Dear colleague, could you confirm whether COC(=O)C(C)Oc1ccccc1Oc1noc2ccc(-n3c(=O)cc(C(F)(F)F)n(C)c3=O)cc12 (stereo not shown) has herbicidal effect rating, SAGPY at or above 2?
n

Could you verify whether the entry COc1cc(C)ccc1-c1nsc2ccc(-n3c(=O)cc(C(F)(F)F)n(C)c3=O)cc12 shows herbicidal effect rating, SAGPY of no less than 2?
y

Decide: herbicidal effect rating, SAGPY of COc1cc(C)c(C)c(C)c1-c1nsc2ccc(-n3c(=O)cc(C(F)(F)F)n(C)c3=O)cc12 >= 2?
n

* * *

- Test system: Sagittaria pygmaea, L.
- Test Summary: Preemergence weed control under flooded paddy conditions, SAGPY (Arrowhead (Pygmaea)); on herbicidal effect rating, SAGPY: meaning of each grade not given here
- Format: in vivo
- Test Context: Rate 0.1250 kg/ha; preemergence, flooded paddy; rated 3-4 weeks after treatment
Property Label: herbicidal effect rating, SAGPY
Could you keep your reply to the number by itself?

Suppose we examine the compound Cc1ccc(OC(C)(C)C(=O)OCCCl)c(-c2nsc3ccc(-n4c(=O)cc(C(F)(F)F)n(C)c4=O)cc23)c1 [Example 544] ; what herbicidal effect rating, SAGPY value has been reported?
8.0

Recorded herbicidal effect rating, SAGPY for CCCCCCCCCOC(=O)COc1ccc(C)cc1-c1nsc2ccc(-n3c(=O)cc(C(F)(F)F)n(C)c3=O)cc12 [Example 519] , please?
0.0

herbicidal effect rating, SAGPY lookup needed for COCCCOCCCOC(=O)COc1ccc(C)cc1-c1nsc2ccc(-n3c(=O)cc(C(F)(F)F)n(C)c3=O)cc12 [Example 523] , thanks.
0.0

Suppose we examine the compound Cn1c(C(F)(F)F)cc(=O)n(-c2ccc3snc(-c4ccccc4OCC(N)=O)c3c2)c1=O [Example 563] ; what herbicidal effect rating, SAGPY value has been reported?
0.0

// returns reported herbicidal effect rating, SAGPY for input Cc1ccc(OCC(=O)C(C)(C)C)c(-c2nsc3ccc(-n4c(=O)cc(C(F)(F)F)n(C)c4=O)cc23)c1 [Example 540]
0.0

# lookup: herbicidal effect rating, SAGPY of C=CS(=O)(=O)NC(=O)COc1ccc(C)cc1-c1nsc2ccc(-n3c(=O)cc(C(F)(F)F)n(C)c3=O)cc12 [Example 553]
0.0

Given the entry Cn1c(C(F)(F)F)cc(=O)n(-c2ccc3snc(/C=C/C(=O)c4ccccc4)c3c2)c1=O [Example 564] , report its measured herbicidal effect rating, SAGPY.
0.0
